- Assay method text: Pharmacokinetic study in rats after oral administration of mix standard solution (UPLC-QqQ-MS of plasma)
- Assay type: in vivo, Sprague-Dawley rats
- Settings: male, Sprague-Dawley, rat, in vivo, po, 10 mg/kg, rats, oral 10 mg/kg mix standard in 0.5% CMC-Na, n = 6, Mean ± S.D.; read-out: Tmax
Known Tmax of a selection of compounds
Give the value; after it, write the unit.

>>> measurement("COc1ccc(-c2coc3cc(O)ccc3c2=O)cc1")
"1.65 h"

// next item, Tmax requested
Incoming: Tmax lookup needed for CC(C)(O)C1CCC(C)(C2C(O)CC3(C)C4CC(OC5OC(CO)C(O)C(O)C5O)C5C(C)(C)C(OC6OCC(O)C(O)C6O)CCC56CC46CCC23C)O1 (centres unmarked) [Astragaloside] , thanks.
Outgoing: 2.8 h
